Origin of values: patent US20250333501A1

# FACS fluorescence per record follows
Target: T1, CLDN6 endogenously expressed by human cancer cell lines (ARK2, OVCA429) (human, UniProt P56747 1-220)
T1 construct: Untagged endogenous protein; also called Endogenous CLDN6+
T1 sequence: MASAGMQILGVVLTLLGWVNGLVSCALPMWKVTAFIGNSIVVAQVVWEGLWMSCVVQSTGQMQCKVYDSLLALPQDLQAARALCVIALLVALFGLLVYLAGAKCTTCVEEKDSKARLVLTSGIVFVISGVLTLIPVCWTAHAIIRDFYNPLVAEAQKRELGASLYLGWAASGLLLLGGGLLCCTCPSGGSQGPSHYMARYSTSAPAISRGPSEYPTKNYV
Assay: FACS, 1.5 µg Ab, ARK2 cells
Provide a numeric answer; units are not to be included.

Look up FACS fluorescence of AB1-6 (antibody, V domains shown, also called Humanized AB 1-6) VH: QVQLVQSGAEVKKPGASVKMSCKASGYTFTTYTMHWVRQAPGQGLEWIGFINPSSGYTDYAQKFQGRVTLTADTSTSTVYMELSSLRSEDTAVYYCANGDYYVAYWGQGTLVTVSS VL: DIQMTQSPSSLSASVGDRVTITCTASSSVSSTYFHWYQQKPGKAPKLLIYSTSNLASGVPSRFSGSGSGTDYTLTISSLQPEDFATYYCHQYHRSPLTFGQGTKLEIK and report it.
7740

Identify measured FACS fluorescence corresponding to AB4-8 (antibody, V domains shown, Humanized; also called Humanized AB 4-8) VH: QVQLVQSGAEVKKPGASVKVSCKASGYTFTSYTMHWVRQAPGQGLEWMGYINPSSTYTHYIKKFKDRVTMTADTSTSTVYMELSSLRSEDTAVYYCSRGELGGFAYWGQGTLVTVSS VL: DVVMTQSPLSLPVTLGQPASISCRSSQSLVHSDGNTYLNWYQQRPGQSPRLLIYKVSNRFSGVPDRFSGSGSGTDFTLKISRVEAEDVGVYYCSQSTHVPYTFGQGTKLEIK
7310

Retrieve FACS fluorescence measured for AB3-chim (antibody, V domains shown, 'chim' is the pre-humanized form (parental variable regions); also called pre-humanized (chimeric) form of AB3) VH: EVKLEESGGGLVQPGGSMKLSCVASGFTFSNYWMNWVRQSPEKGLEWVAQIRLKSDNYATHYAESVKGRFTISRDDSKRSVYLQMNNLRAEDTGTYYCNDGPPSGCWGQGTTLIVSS VL: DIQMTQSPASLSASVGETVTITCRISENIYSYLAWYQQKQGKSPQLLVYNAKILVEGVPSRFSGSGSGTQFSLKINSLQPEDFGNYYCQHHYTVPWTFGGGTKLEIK and print it.
29100
